targetOfAssay: Histone deacetylase HD2 (Zea mays)
Sequence (Q94F81 whole entry): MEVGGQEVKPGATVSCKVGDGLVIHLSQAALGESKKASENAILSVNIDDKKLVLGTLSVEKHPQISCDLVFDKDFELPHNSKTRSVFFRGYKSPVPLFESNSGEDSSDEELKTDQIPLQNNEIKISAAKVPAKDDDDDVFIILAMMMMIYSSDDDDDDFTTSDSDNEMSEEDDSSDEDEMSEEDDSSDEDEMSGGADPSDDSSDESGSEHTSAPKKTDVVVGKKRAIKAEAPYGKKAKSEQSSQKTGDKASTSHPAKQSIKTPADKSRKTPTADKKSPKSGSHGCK
experimentalProtocol: Inhibitory concentration against Histone deacetylase 2 in maize
measurementLabel: IC50 (nM)
Numeric answer only, unit nM assumed.

Study these solved cases before continuing.
>  <compound>
CCc1ccccc1-c1cc(O)nc(SCCCCCC(=O)NO)n1

>  <IC50 (nM)>
35

$$$$
>  <compound>
O=C(CC1CSc2nc(Cc3ccccc3)cc(=O)n21)NO (stereo unspecified)

>  <IC50 (nM)>
31800

$$$$
>  <compound>
O=C(CCCSc1nc(Cc2ccccc2)cc(=O)[nH]1)NO

>  <IC50 (nM)>
229

$$$$
>  <compound>
O=C(CCCCCCCSc1nc(O)cc(Cc2ccccc2)n1)NO

>  <IC50 (nM)>
61

$$$$
>  <compound>
O=C(O)[C@@H]1C[C@]2(C(=O)O)C=C[C@@H](O)[C@@H](C2)O1

>  <IC50 (nM)>
7

$$$$

Now consider a different compound.
Bench note: what IC50 did O=C(CCCCCSc1nccc(O)n1)NO show?
213
